- Test system: CRL-7250
- Method notes: Cytotoxic Profiling of Annotated Libraries Using Quantitative High-Throughput Screening (AID 1296008); note: nearly all actives have a fitted effect of over 60% in size
- Measurement conditions: Five cell lines viability, CellTiter-Glo ATP luminescence, 48-72 h
Records with an inconclusive call do not appear. The source made the active and inactive calls. Calls come from the whole dose curve; as a rule, active = well fitted inhibition curve with a large enough effect; inconclusive = small, poorly fitted or top-dose-only effect; inactive = flat fitted curve, though single readings scatter.
Observation type: outcome

Entry under test: CC(C)C1(O)NC(=O)C(CC2(O)c3ccccc3N3C(=O)C(C)(C)NC32)n2c1nc1ccccc1c2=O (centres undefined) . Its outcome was inactive

Item: COc1ccccc1CN[C@H]1CCCN[C@H]1c1ccccc1 | outcome: inactive

The compound CCOc1nc2c(N)ncnc2n1CC showed outcome equal to inactive

Quick note, outcome for CCC/C=C/C=C/C1CC(O)C(O)C(=O)C1CO (centres undefined) landed at inactive

// field: outcome; key: C=C1CC2C3(C)C(O)CC(=O)C(C)(C)C3C(O)C(OC(C)=O)C2(C)C2C(=O)OC(C)(C(=O)OC)C(=O)C12C (centres undefined) ; value = inactive

Next:
The reported value for C/C=C(\C)C(=O)OC1C2(O)CC3=C4CC(=O)OC(c5ccoc5)C4(C)CCC3C(C)(C2=O)C(C(OC(C)=O)C(=O)OC)C1(C)C (centres undefined) in terms of outcome is inactive

outcome recorded for this compound, C=C1CC[C@@]2(OC1)O[C@H]1CC3[C@@H]4CC=C5C[C@@H](O)C[C@@H](O[C@@H]6OC[C@H](O)[C@H](O)[C@H]6O[C@@H]6O[C@@H](C)[C@H](O)[C@@H](O)[C@H]6O)[C@]5(C)C4CC[C@]3(C)[C@H]1[C@@H]2C (some centres undefined) , is inactive

###

- Method notes: Primary fluorescence-based thiol-reactive (MSTI) qHTS assay for identification of artifact compounds. (AID 1845221);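 note: thiol-reactive compounds lower the probe fluorescence signal; nearly all actives have a fitted effect of over 65% in size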
- Measurement conditions: MSTI thiol-reactivity probe, 1 h; series mostly up to 53.8 µM
Inconclusive results are not listed. Calls of active or inactive are those of the source. The call rests on the fitted dose curve; in most records, active means well fitted inhibition curve with a large enough effect; inconclusive means small, poorly fitted or top-dose-only effect; inactive means no such curve, though single readings can be large or run the other way.
Observation type: activity change, negative = thiol reactive

In plain terms, C[C@@H]1O[C@@H](O[C@H]2[C@H](OC(=O)[C@]34CCC(C)(C)C[C@H]3C3=CCC5[C@@]6(C)C[C@@H](O)[C@@H](O[C@@H]7O[C@H](CO)[C@@H](O)[C@H](O)[C@H]7O)[C@@](C)(CO)C6[C@H](O)C[C@@]5(C)[C@]3(C)CC4)OC[C@H](O)[C@@H]2O)[C@H](O)[C@H](O[C@@H]2OC[C@](O)(CO)[C@H]2O)[C@H]1O[C@@H]1OC[C@@H](O)[C@H](O[C@H]2O[C@H](C)[C@@H](O)[C@H](O)[C@@H]2O)[C@H]1O (some centres not stated) has a documented activity change, negative = thiol reactive of 412% [at 11.5 µM] (inactive)

More entries:
So for CC1(C)CC[C@]2(C(=O)O[C@@H]3O[C@H](CO)[C@@H](O)[C@H](O)[C@H]3O)CC[C@]3(C)C(=CCC4[C@@]5(C)CC[C@H](O[C@@H]6O[C@H](C(=O)O)[C@@H](O)[C@H](O)[C@H]6OC6OC(CO)C(O)C(O)C6O)C(C)(C)C5CC[C@]43C)[C@@H]2C1 (some centres not stated) , the logged activity change, negative = thiol reactive turned out to be 43.7% [at 11.5 µM] (inactive)

###

In this section, each of the compounds is paired with its reported max response.
- Tested on: CRL-7250
- Method notes: Cytotoxic Profiling of Annotated Libraries Using Quantitative High-Throughput Screening (AID 1296008); note: nearly all actives have a fitted effect of over 60% in size; for max response: % is set by controls: 0 for no effect and ±100 for the full control effect
- Measurement conditions: Five cell lines viability, CellTiter-Glo ATP luminescence, 48-72 h; hits give low values
Results filed as inconclusive are left out.
Value expressed in %; do not type the unit.

The cases that follow already have their max response on record.
Item: COc1ccnc(CCc2nc3ncccc3[nH]2)c1 | max response: -4.02

Lab book: max response of COc1ccc(C(=O)NCc2cc(C(C)C)no2)cc1OC1CCN(C)CC1 noted as -1.84

compound CC(C)c1ccc2c(c1)C(O)CC1C(C)(C(=O)O)CCCC21C (stereo not given) , max response observed: -4.34

The reported max response of the compound CC/C=C/C(O)C(O)C1=C(C)C(=O)C2(O1)C(=O)NC(OC)(C(=O)c1ccccc1)C2O (stereo not given) was 0.865

Continue with the compound presented below.
The measured max response associated with Cc1cn(C[C@H](N)C(=O)O)c(=O)n(Cc2ccsc2C(=O)O)c1=O reads -3.54

###

Property: max response; scope: individual molecules
- Tested on: KB-3-1
- Method notes: Cytotoxic Profiling of Annotated Libraries Using Quantitative High-Throughput Screening (AID 1296008); note: nearly all actives have a fitted effect of over 60% in size; for max response: % is set by controls: 0 for no effect and ±100 for the full control effect
- Measurement conditions: Five cell lines viability, CellTiter-Glo ATP luminescence, 48-72 h; hits give low values
Inconclusive results are not listed.
Provide only the numeric value, understood in %.

Field max response (entry CC(=O)OCC1OC(OC2COC(OC3COC(OC4C(OC5C(CO)OC(OC6CCC7(C)C(CCC8(C)C7CC=C7C9CC(C)(C)CCC9(C(=O)OC9OC(CO)C(O)C(O)C9OC9OCC(OC%10OCC(O)(CO)C%10O)C(O)C9O)C(O)CC78C)C6(C)C)C(O)C5O)OCC(O)C4O)C(O)C3O)C(O)C2O)C(OC(=O)/C=C/c2ccccc2)C(O)C1OC(C)=O (stereo not drawn) ) reads 4.45

For this molecule ( CCC[C@H](N[C@@H](C)C(=O)N1[C@H](C(=O)O)C[C@@H]2CCCC[C@@H]21)C(=O)O ), measured max response is -5.15

// max response value for C/C1=C\CC[C@]2(C)O[C@H]2C(=O)c2c(C)coc2C1 : -3.14

The molecule O=C(CCc1ccccc1)c1c(O)c([C@@H]2O[C@H](CO)[C@@H](O)[C@H](O)[C@H]2O)c(O)c([C@@H]2O[C@H](CO)[C@@H](O)[C@H](O)[C@H]2O)c1O showed max response equal to 8.16

More entries:
Sure, the documented max response for CCC(C)/C=C(C)/C=C/C1=CC2=CC(=O)C(C)(O)C(OC(C)=O)C2CO1 (stereo not drawn) is -4.84

Record summary for O=C(O)CCc1ccc(NCc2cccc3c2CCCN3CCOc2ccccc2)cc1F : reported max response = 2.13

Consider CO[C@@H]1[C@]2(O)C(=O)N3/C=C\C(C)(C)c4[nH]c5ccccc5c4/C=C\3C(=O)N2[C@]23[C@H](CO)C(C)(C)N2c2ccccc2[C@]13O . Its measured max response is 7.79

Sample CCN(CCN(C)C)C(=O)CNCc1cc(C(N)=O)ccn1 ; max response observed: 7.84

###

- Method notes: Primary qHTS for inhibitors of nuclear receptor binding SET domain protein 2 (NSD2) in an isogenic RCH-ACV NSD2 p.E1099K mutant (9B) (AID 1645876); note: % is set by controls: 0 for no effect and ±100 for the full control effect; nearly all actives have a fitted effect of over 70% in size
- Measurement conditions: RCH-ACV (leukaemia line) NSD2 E1099K (9B) viability, CellTiter-Glo, 72 h; series mostly up to 44.9 µM
Results filed as inconclusive are left out. Active and inactive are the calls of the source. The call rests on the fitted dose curve; in most records, active means well fitted inhibition curve with a large enough effect; inconclusive means small, poorly fitted or top-dose-only effect; inactive means flat fitted curve, though single readings scatter.
Observation type: activity change, negative = viability loss

Study these solved cases before continuing.
Value of activity change, negative = viability loss reported for the molecule C[C@@H]1[C@H]2[C@H](O[C@@H]3O[C@H](CO)[C@@H](O)[C@H](O)[C@H]3O)OC=C(C(=O)O)[C@H]2C[C@@H]1OC(=O)/C=C/c1ccc(O)cc1 is inactive

The recorded activity change, negative = viability loss for entry COc1ccc(C2(O)c3c(ccc4c3OC(C)(CCC=C(C)C)C=C4)NC(=O)C2OC)cc1 (stereo not drawn) equals inactive

Briefly, activity change, negative = viability loss measured for COc1cc(/C=C/C(=O)OC[C@H]2O[C@@H](OC3OC=C(C(=O)O)C4C(O)CC(C)(O)C34)[C@H](O)[C@@H](O)[C@@H]2O)cc(OC)c1O (stereo partly drawn) : inactive

Lab book: activity change, negative = viability loss of C=C1CCC2C(C)(C)CC(O)CC2(C)C1CCC(C)CC(=O)O (stereo not drawn) noted as inactive

Recorded result, C/C=C/C=C/C=C/C(=O)OC1C=C2C(O)OC(=O)[C@]2(O)[C@@]2(C)CCCC(C)(C)[C@H]12 (stereo partly drawn) , activity change, negative = viability loss: inactive

Documented activity change, negative = viability loss of O=C(Nc1ccccc1)Nc1ccc(-c2ccc(C(=O)C3CCCC3C(=O)O)cc2)cc1 (stereo not drawn) : inactive

Record C/C=C(/C)C(=O)O[C@H]1C[C@]2(C)O[C@@H]2[C@@H](OC(C)=O)[C@@]2(C)CC[C@@](O)(C(C)C)[C@H]12 . Reported activity change, negative = viability loss: inactive

Kindly review the next molecule as well.
In plain terms, NC(=O)[C@H](Cc1ccccc1)NC(=O)[C@H](CCCN=C(N)N)NC(=O)C12CC3CC(CC(C3)C1)C2 has a documented activity change, negative = viability loss of -0.15% [at 9.23 µM] (inactive)

###

- System: PA-1
- Method notes: Primary qHTS to identify gynecologic anti-cancer compounds using libraries of approved drugs and bioactive compounds (AID 1345084); note: % is set by controls: 0 for no effect and ±100 for the full control effect; nearly all actives have a fitted effect of over 55% in size
- Measurement conditions: Gynecologic cancer cell panel viability, ATPlite luminescence, 48 h; series mostly up to 57.5 µM
Records with an inconclusive call do not appear. Activity calls are given as the source filed them. Calls come from the whole dose curve; as a rule, active = well fitted cell-killing curve with a large enough effect; inconclusive = small, poorly fitted or top-dose-only effect, or effect the other way; inactive = flat fitted curve, though single readings scatter.
Observation type: activity change, negative = cytotoxicity

The recorded activity change, negative = cytotoxicity with PA-1 for OC[C@H]1O[C@@H](O[C@H]2[C@H](O)[C@@H](CO)O[C@@H](OCc3ccccc3)[C@@H]2O[C@@H]2OC[C@](O)(CO)[C@H]2O)[C@H](O)[C@@H](O)[C@@H]1O was inactive

COc1cc(/C=C/C(=O)O[C@@H]2C[C@@](O)(C(=O)O)C[C@@H](O)[C@@H]2O)ccc1O tested on PA-1 gave activity change, negative = cytotoxicity: inactive

Record for COC(=O)c1ccc(OC)cc1O[C@@H]1O[C@H](CO[C@@H]2OC[C@@H](O)[C@H](O)[C@H]2O)[C@@H](O)[C@H](O)[C@H]1O under target or system PA-1: activity change, negative = cytotoxicity reported as inactive
